- System: SR leukemia
- experiment.summary: NCI tumour cell line growth inhibition, 48 h
Record form. Attribute: log10 of TGI. Fill in for each entry.
Recorded TGI (log10, µM)

CCOC(=O)C1(Cc2ccccc2)CCN(C(=O)c2ccccc2)C2C1C2(Cl)Cl (stereo unspecified) :: 1.84
Cc1ccc(NC2=C(Sc3ccc(Cl)cc3)C(=O)N(Cc3ccccc3)C2=O)cc1Cl :: 0.91
CC[O-].CC[O-].O=Nc1ccc2cc([O-])ccc2c1.O=Nc1ccc2cc([O-])ccc2c1.[Ti+4] :: 0.47
Cc1c(C(=O)CC(=O)C(=O)Nc2cccc(C(F)(F)F)c2)[n+](=O)c2ccccc2n1[O-] :: 0.95
C/C=C/[C@@H]1O[C@H](CC#C[Si](C)(C)C)[C@@]2(C=O)C(C)=CC[C@H](C(C)C)[C@@H]12 :: 1.75
Cc1ccc(C(=O)N/N=C/c2cccc(Oc3ccccc3)c2)cn1 :: 1.32
CCc1oc2ccccc2c1C(=O)c1cc(Br)c(O)c(Br)c1 :: 1.74
CC1=CC[C@H](C)C(C)(C)C1/C=C/C(C)=C/CC[C@@]1(CO)[C@H](CCCO)/C(=C(/C)C=O)CC[C@]1(C)O (stereo partly specified) :: 1.39

Each compound below has a reported value. Please supply its log10 of TGI.
1. O=C(Nc1cc(Cl)ccc1O)c1cccc(NC2=C(Cl)C(=O)N(Cc3ccccc3)C2=O)c1
2. CCC(/C=C/c1ccccc1)=N\NC(=S)N/N=C(/C=C/c1ccccc1)CC
3. O=C(/C(Cl)=C/c1ccccc1)c1ccccc1

Completion:
1.36
1.96
0.81

Reference source for all entries: PubChem BioAssay (NCI)
